experimental target: Mitogen-activated protein kinase kinase kinase 6 (Homo sapiens)
Sequence (O95382 whole entry): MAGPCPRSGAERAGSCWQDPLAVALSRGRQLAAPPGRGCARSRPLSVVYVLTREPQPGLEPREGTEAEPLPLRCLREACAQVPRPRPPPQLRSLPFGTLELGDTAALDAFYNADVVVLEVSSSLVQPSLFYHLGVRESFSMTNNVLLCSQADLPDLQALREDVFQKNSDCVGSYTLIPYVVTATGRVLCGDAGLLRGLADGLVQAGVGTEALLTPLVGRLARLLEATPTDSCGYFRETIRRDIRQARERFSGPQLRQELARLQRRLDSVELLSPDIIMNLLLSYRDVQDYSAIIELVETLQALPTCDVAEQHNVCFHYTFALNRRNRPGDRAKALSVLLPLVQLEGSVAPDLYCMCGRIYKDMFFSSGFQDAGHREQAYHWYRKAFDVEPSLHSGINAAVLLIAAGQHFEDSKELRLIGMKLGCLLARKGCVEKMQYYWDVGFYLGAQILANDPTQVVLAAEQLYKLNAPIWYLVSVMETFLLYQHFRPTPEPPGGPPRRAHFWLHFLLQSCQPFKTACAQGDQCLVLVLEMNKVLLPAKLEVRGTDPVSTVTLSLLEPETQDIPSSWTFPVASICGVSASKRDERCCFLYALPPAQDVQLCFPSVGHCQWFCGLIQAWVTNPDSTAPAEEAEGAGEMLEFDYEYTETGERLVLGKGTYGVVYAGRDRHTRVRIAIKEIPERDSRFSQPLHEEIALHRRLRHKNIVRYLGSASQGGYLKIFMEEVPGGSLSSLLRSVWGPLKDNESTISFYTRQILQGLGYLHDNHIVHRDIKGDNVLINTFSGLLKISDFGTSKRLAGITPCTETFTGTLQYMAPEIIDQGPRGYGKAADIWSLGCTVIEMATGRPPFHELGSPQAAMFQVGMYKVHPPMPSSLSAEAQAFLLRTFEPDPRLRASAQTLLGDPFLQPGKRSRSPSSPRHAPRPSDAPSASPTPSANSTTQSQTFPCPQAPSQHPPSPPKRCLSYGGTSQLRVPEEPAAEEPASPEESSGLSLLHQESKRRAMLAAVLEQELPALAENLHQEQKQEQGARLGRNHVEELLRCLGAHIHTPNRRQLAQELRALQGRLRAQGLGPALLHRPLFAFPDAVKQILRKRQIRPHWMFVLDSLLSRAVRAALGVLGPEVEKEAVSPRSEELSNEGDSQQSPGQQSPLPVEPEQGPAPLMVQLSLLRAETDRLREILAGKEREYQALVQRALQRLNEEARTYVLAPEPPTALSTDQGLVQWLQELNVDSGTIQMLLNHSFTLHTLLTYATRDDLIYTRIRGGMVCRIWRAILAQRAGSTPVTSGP
assay summary: Inhibition of ASK2 (unknown origin)
pIC50: −log10 of the molar value.
Returns one of yes or no; yes when pIC50 is >= 6.

Would you please look over these solved cases?
CC(C)n1cnnc1-c1cccc(NC(=O)Nc2nccc3ccccc23)n1 = yes
C[C@H](CO)n1cnnc1-c1cccc(NC(=O)Nc2nccc3ccccc23)n1 = yes
C[C@H](CO)n1cnnc1-c1cccc(NC(=O)Nc2ccc3ccccc3n2)n1 = no
CC(C)n1cnnc1-c1cccc(NC(=O)Nc2cc3ccccn3n2)n1 = no
CC(C)n1cnnc1-c1cccc(NC(=O)Nc2ccc(-c3ccn(C)n3)cn2)n1 = no
C[C@H](CO)n1cnnc1-c1cccc(NC(=O)Nc2cnc3ccccc3n2)n1 = no

Continue with the molecule presented below.
Ask: Form field: pIC50 at least 6? Entry: C[C@H](CO)n1cnnc1-c1cccc(NC(=O)Nc2ncc3ccccc3n2)n1
Reply: no
